Literature survey of IC50 (system: Histone deacetylase 2 (Homo sapiens, UniProt Q92769)).
Sequence (Q92769 whole entry): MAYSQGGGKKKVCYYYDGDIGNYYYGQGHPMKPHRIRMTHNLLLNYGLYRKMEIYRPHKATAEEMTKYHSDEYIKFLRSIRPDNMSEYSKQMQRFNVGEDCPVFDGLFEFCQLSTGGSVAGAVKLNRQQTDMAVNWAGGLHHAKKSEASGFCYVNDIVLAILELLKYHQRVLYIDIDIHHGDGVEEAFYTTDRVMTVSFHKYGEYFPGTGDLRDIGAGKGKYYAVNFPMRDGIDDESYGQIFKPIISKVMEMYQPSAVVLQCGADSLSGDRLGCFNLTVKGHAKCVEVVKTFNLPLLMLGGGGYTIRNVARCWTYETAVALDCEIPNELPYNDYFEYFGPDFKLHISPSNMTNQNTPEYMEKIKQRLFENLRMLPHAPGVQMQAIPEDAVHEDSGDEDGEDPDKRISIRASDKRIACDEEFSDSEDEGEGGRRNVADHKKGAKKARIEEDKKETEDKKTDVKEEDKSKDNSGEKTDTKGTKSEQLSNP

Lab entry: Histone deacetylase 2 (Homo sapiens, UniProt Q92769) assay, molecule CCCNNC(=O)c1cccc(CN(CCc2c(C)[nH]c3ccccc23)C(=O)OC(C)(C)C)c1 , IC50 = > 5 µM

Lab entry: Histone deacetylase 2 (Homo sapiens, UniProt Q92769) assay, molecule C[C@H](NS(=O)(=O)c1cccc(C(=O)NO)c1)C(=O)Nc1ccccc1 , IC50 = > 100 µM

Lab entry: Histone deacetylase 2 (Homo sapiens, UniProt Q92769) assay, molecule O=C(NO)C1=CCCCC1 , IC50 = 1.05 µM

----------
Literature survey of IC50 (system: Histone deacetylase 2 (Homo sapiens)).

Guide cases for IC50, answers given:
[
  {
    "smilesText": "CC1(C)C(=O)N(c2ccc(C#N)c(C(F)(F)F)c2)C(=S)N1c1ccc(C(=O)NCCCCCCc2ccc(C(=O)C(F)(F)F)s2)c(F)c1",
    "readoutLabel": "IC50",
    "result": "> 10 µM"
  },
  {
    "smilesText": "Nc1ccc(-c2ccccc2)cc1NC(=O)c1ccc2c(c1)ncn2CCN1CCOCC1",
    "readoutLabel": "IC50",
    "result": "0.01 µM"
  }
]

Now take the following compound into account.
Lab entry: Histone deacetylase 2 (Homo sapiens) assay, compound O=C(NO)c1cccc(CNc2ccccc2)c1 , IC50 = > 33 µM
